In this section we review reported EC50 values for a set of binders.
molecular target: T1, mouse LTβR extracellular domain fused with an Fc fragment at the C-terminus (mouse, UniProt P50284 31-223); experiment: ELISA on coated target-Fc
T1 construct: extracellular domain; Bought; also called mLTβR; not shown: Fc fragment at the C-terminus
T1 sequence (P50284 31-223): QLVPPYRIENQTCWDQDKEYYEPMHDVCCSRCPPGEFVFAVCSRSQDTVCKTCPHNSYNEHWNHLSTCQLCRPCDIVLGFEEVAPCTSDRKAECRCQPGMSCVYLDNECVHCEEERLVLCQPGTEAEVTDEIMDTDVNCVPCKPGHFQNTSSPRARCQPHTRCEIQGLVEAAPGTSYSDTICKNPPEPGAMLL
Write the answer as a number in µg/mL, unit excluded.

Recorded results for 10 binders are shown here.
LIGHT-27 (ligand, Printed mutations: S160N, T161S, L220S, E222D; Soluble protein carries an N-terminal His tag) DGPAGSWEQLIQERRSHEVNPAAHLTGANSSLTGSGGPLLWETQLGLAFLRGLSYHDGALVVTKAGYYYIYSKVQLGGVGCPLGLANSITHGLYKRTPRYPEELELLVSQQSPCGRATSSSRVWWDSSFLGGVVHLEAGEKVVVRVSDDRLVRLRDGTRSYFGAFMV: 0.0642
LIGHT-52 (ligand, Printed mutations: L220S; Soluble protein carries an N-terminal His tag) DGPAGSWEQLIQERRSHEVNPAAHLTGANSSLTGSGGPLLWETQLGLAFLRGLSYHDGALVVTKAGYYYIYSKVQLGGVGCPLGLASTITHGLYKRTPRYPEELELLVSQQSPCGRATSSSRVWWDSSFLGGVVHLEAGEKVVVRVSDERLVRLRDGTRSYFGAFMV: 0.0279
LIGHT-14 (ligand, Soluble protein carries an N-terminal His tag) DGPAGSWEQLIQERRSHEVNPAAHLTGANSSLTGSGGPLLWESQLGLAFLRGLSYHDGALVVTKAGYYYIYSKVQLGGVGCPLGQASTITHGMYKRTPRYPEELELLVSQQSPCGRATSSSRVWWDSSFLGGVVHLEAGEKVVVRVLDERLVRLRDGTRSYFGAFMV: 0.0249
LIGHT-31 (ligand, Printed mutations: S160R, T161S, L220S; Soluble protein carries an N-terminal His tag) DGPAGSWEQLIQERRSHEVNPAAHLTGANSSLTGSGGPLLWETQLGLAFLRGLSYHDGALVVTKAGYYYIYSKVQLGGVGCPLGLARSITHGLYKRTPRYPEELELLVSQQSPCGRATSSSRVWWDSSFLGGVVHLEAGEKVVVRVSDERLVRLRDGTRSYFGAFMV: 0.0747
LIGHT-3 (ligand, Printed mutations: G150A, L220S; Soluble protein carries an N-terminal His tag) DGPAGSWEQLIQERRSHEVNPAAHLTGANSSLTGSGGPLLWETQLGLAFLRGLSYHDGALVVTKAGYYYIYSKVQLAGVGCPLGLASTITHGLYKRTPRYPEELELLVSQQSPCGRATSSSRVWWDSSFLGGVVHLEAGEKVVVRVSDERLVRLRDGTRSYFGAFMV: 0.0401
LIGHT-34 (ligand, Printed mutations: T161S, L220S; Soluble protein carries an N-terminal His tag) DGPAGSWEQLIQERRSHEVNPAAHLTGANSSLTGSGGPLLWETQLGLAFLRGLSYHDGALVVTKAGYYYIYSKVQLGGVGCPLGLASSITHGLYKRTPRYPEELELLVSQQSPCGRATSSSRVWWDSSFLGGVVHLEAGEKVVVRVSDERLVRLRDGTRSYFGAFMV: 0.0446
LIGHT-17 (ligand, Printed mutations: H208Y, Q117N; Soluble protein carries an N-terminal His tag) DGPAGSWEQLIQERRSHEVNPAAHLTGANSSLTGSGGPLLWETNLGLAFLRGLSYHDGALVVTKAGYYYIYSKVQLGGVGCPLGLASTITHGLYKRTPRYPEELELLVSQQSPCGRATSSSRVWWDSSFLGGVVYLEAGEKVVVRVLDERLVRLRDGTRSYFGAFMV: 0.0442
LIGHT-7 (ligand, Printed mutations: P155R, L220Q, R232H; Soluble protein carries an N-terminal His tag) DGPAGSWEQLIQERRSHEVNPAAHLTGANSSLTGSGGPLLWETQLGLAFLRGLSYHDGALVVTKAGYYYIYSKVQLGGVGCRLGLASTITHGLYKRTPRYPEELELLVSQQSPCGRATSSSRVWWDSSFLGGVVHLEAGEKVVVRVQDERLVRLRDGTHSYFGAFMV: 0.156
LIGHT-48 (ligand, Printed mutations: L120P, L220R; Soluble protein carries an N-terminal His tag) DGPAGSWEQLIQERRSHEVNPAAHLTGANSSLTGSGGPLLWETQLGPAFLRGLSYHDGALVVTKAGYYYIYSKVQLGGVGCPLGLASTITHGLYKRTPRYPEELELLVSQQSPCGRATSSSRVWWDSSFLGGVVHLEAGEKVVVRVRDERLVRLRDGTRSYFGAFMV: 0.42
LIGHT-9 (ligand, Printed mutations: G150S, T161G, L220S; Soluble protein carries an N-terminal His tag) DGPAGSWEQLIQERRSHEVNPAAHLTGANSSLTGSGGPLLWETQLGLAFLRGLSYHDGALVVTKAGYYYIYSKVQLSGVGCPLGLASGITHGLYKRTPRYPEELELLVSQQSPCGRATSSSRVWWDSSFLGGVVHLEAGEKVVVRVSDERLVRLRDGTRSYFGAFMV: 0.0224

Prompt: Endpoint output: EC50 of LIGHT-19 (ligand, Soluble protein carries an N-terminal His tag) DGPAGSWEQLIQERRSHEVNPAAHLTGANSSLTGSGGPLLWETQLGLAFLRGLSYHDGALVVSKAGYYYIYSKVQLGGVGCPPGLAGTITHGLYKRTPRYPEELELLVSQQSPCGRATSSSRVWWDSSFLGGVVHLEAGEKVVVRVMDERLVRLRDGTRSYFGAFMV . Value?
Response: 0.468

Prompt: Endpoint output: EC50 of LIGHT-22 (ligand, Printed mutations: S160G, T161S, L220S; Soluble protein carries an N-terminal His tag) DGPAGSWEQLIQERRSHEVNPAAHLTGANSSLTGSGGPLLWETQLGLAFLRGLSYHDGALVVTKAGYYYIYSKVQLGGVGCPLGLAGSITHGLYKRTPRYPEELELLVSQQSPCGRATSSSRVWWDSSFLGGVVHLEAGEKVVVRVSDERLVRLRDGTRSYFGAFMV . Value?
Response: 0.0624
